Target: KRAS G12D (Homo sapiens, UniProt P01116, G12D)
Sequence (P01116 1-188 isoform P01116-2 G12D): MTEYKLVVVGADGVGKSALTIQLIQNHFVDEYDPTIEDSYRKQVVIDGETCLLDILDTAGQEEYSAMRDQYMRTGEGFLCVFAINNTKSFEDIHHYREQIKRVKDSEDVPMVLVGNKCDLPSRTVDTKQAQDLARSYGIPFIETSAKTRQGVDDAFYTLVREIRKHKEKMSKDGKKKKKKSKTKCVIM
Assay: GDP-GTP exchange assay, KRAS G12D (bodipy-GDP/GppNHp, SOS1)
Assay type: biochemical
Conditions: bodipy-loaded KRAS G12D 2.5 nM, 4 hours pre-incubation with inhibitor, SOS1 150 nM, GppNHp 500 uM; read-out: G12D_exchange (KRAS_G12D exchange assay IC50)
pIC50: −log10 of the molar value.
assay_metric: pIC50

// solved cases for pIC50 follow
| compound | assay_metric | measured_result |
| --- | --- | --- |
| N#CCCc1cc2c3c(cnc2c(F)c1-c1cc(O)cc2ccccc12)NC(=O)CN3[C@@H]1[C@@H]2CN[C@H]1C2 (racemic) [Example 20a] | pIC50 | ≥ 7.00 |
| N#CCCc1cc2c3c(cnc2c(F)c1-c1cc(O)cc2ccccc12)N(CCC1CCNCC1)C(=O)CN3C1C2CNC1C2 (single isomer, unassigned) [Example 18a] | pIC50 | ≥ 7.00 |
| N#CCCc1cc2c3c(cnc2c(F)c1-c1cc(O)cc2ccccc12)N(CC(N)=O)C(=O)CN3C1C2CNC1C2 (single isomer, unassigned) [Example 19a] | pIC50 | ≥ 7.00 |

Would you mind giving pIC50 for every compound in the list below?
1. Cc1cc2c(nc(O[C@@H](C)[C@@H]3CCCN3C)c3c(=O)ccn([C@H]4[C@H]5CN[C@@H]4C5)c32)c(F)c1-c1cccc2c1C(C#N)CCC2 (stereo partly drawn) [Example 23]
2. N#CCCc1cc2c3c(c(-c4ccc5cccnc5c4)nc2c(F)c1-c1cc(O)cc2ccccc12)NC(=O)CN3C1C2CNC1C2 (single isomer, unassigned) [Example 6a]
3. CC1Cc2c(OC[C@@H]3CCCN3C)nc3c(F)c(-c4cc(O)cc5ccccc45)c(CCC#N)cc3c2N(C2C3CNC2C3)C1 (single isomer, unassigned) [Example 14b]
4. C[C@H](Oc1nc2c(F)c(-c3cccc(Cl)c3Cl)c(CCC#N)cc2c2c1NC(=O)CN2C1C2CNC1C2)[C@@H]1CCCN1C (single isomer, unassigned) [Example 2b]
5. C[C@@H](CN(C)C)Oc1nc2c(F)c(-c3cc(O)cc4ccccc34)c(CCC#N)cc2c2c1NC(=O)CN2C1C2CNC1C2 (single isomer, unassigned) [Example 11b]
6. N#CCCc1cc2c3c(c(OC[C@@]45CCCN4C[C@H](F)C5)nc2c(F)c1-c1cc(O)cc2ccccc12)NC(=O)CN3C1C2CNC1C2 (single isomer, unassigned) [Example 10c]
7. C[C@H](Oc1nc2c(F)c(-c3cccc(Cl)c3Cl)c(CCC#N)cc2c2c1c(=O)c(N1CCCC1=O)cn2[C@H]1[C@H]2CN[C@@H]1C2)[C@@H]1CCCN1C (single isomer, unassigned) [Example 25]
8. C[C@H](Oc1nc2c(F)c(-c3cc(O)cc4ccc(F)cc34)c(CCC#N)cc2c2c1NC(=O)CN2C1C2CNC1C2)[C@@H]1CCCN1C (single isomer, unassigned) [Example 4c]

1: ≥ 7.00; 2: ≥ 7.00; 3: ≥ 7.00; 4: ≥ 7.00; 5: 5.00 to 5.30; 6: 6.00 to 7.00; 7: ≥ 7.00; 8: ≥ 7.00

Would you mind giving pIC50 for every compound in the list below?
1. N#CCCc1cc2c3c(c(OC[C@@]45CCCN4C[C@H](F)C5)nc2c(F)c1-c1cc(O)cc2ccccc12)NC(=O)CN3C1C2CNC1C2 (single isomer, unassigned) [Example 10b]
2. C[C@H](Oc1nc2c(F)c(-c3cccc4ccc(F)cc34)c(CCC#N)cc2c2c1NC(=O)CN2C1C2CNC1C2)[C@@H]1CCCN1C (single isomer, unassigned) [Example 3a]
3. C[C@H](Oc1nc2c(F)c(-c3cc(O)cc4ccccc34)c(CCC#N)cc2c2c1CCCN2C1C2CNC1C2)[C@@H]1CCCN1C (single isomer, unassigned) [Example 15a]
4. N#CCCc1cc2c3c(c(Cc4ccccc4)nc2c(F)c1-c1cc(O)cc2ccccc12)NC(=O)CN3C1C2CNC1C2 (single isomer, unassigned) [Example 8a]
5. N#CCCc1cc2c3c(c(-c4ccc5cccnc5c4)nc2c(F)c1-c1cc(O)cc2ccccc12)NC(=O)CN3C1C2CNC1C2 (single isomer, unassigned) [Example 6b]
6. CNC(=O)c1cccc(-c2nc3c(F)c(-c4cc(O)cc5ccccc45)c(CCC#N)cc3c3c2NC(=O)CN3C2C3CNC2C3)c1 (single isomer, unassigned) [Example 9a]

["≥ 7.00", "≥ 7.00", "5.30 to 6.00", "6.00 to 7.00", "5.30 to 6.00", "≥ 7.00"]

Would you mind giving pIC50 for every compound in the list below?
1. C[C@@H](CN(C)C)Oc1nc2c(F)c(-c3cc(O)cc4ccccc34)c(CCC#N)cc2c2c1NC(=O)CN2C1C2CNC1C2 (single isomer, unassigned) [Example 11c]
2. C[C@H](Oc1nc2c(F)c(-c3cccc(Cl)c3Cl)c(CCC#N)cc2c2c1c(=O)c(-c1cnn(C)c1)cn2[C@H]1[C@H]2CN[C@@H]1C2)[C@@H]1CCCN1C (single isomer, unassigned) [Example 24a]
3. Cn1cnc(-c2nc3c(F)c(-c4cc(O)cc5ccccc45)c(CCC#N)cc3c3c2NC(=O)CN3C2C3CNC2C3)c1 (single isomer, unassigned) [Example 7b]
4. N#CCCc1cc2c3c(c(OC[C@@]45CCCN4C[C@H](F)C5)nc2c(F)c1-c1cc(O)cc2ccccc12)NC(=O)CN3C1C2CNC1C2 (single isomer, unassigned) [Example 10a]

["≥ 7.00", "≥ 7.00", "6.00 to 7.00", "≥ 7.00"]
